System: A549
ASSAY_DETAILS: NCI tumour cell line growth inhibition, 48 h
Active and inactive are the calls of the source. Cut-off read from the data, not from the text of the source: active = GI50 up to about 1.1 µM and inactive = higher.
Catalogue of GI50 readings, one per entry.

Use these answered entries as a reference point.
1) CCOC(=O)C1(C(=O)OCC)C[C@]23OCCC(=O)[C@H]2[C@H]2C(=O)OC(C)(C)O[C@]23C1	> 100 µM (inactive)
2) CCOC(OCC)C(CC)[Se]c1ccccc1[N+](=O)[O-] (stereo unspecified)	4.79 µM (inactive)
3) N#Cc1c(-c2cccc(Cl)c2)cc(-c2ccc(Cl)cc2)nc1N	17.5 µM (inactive)
4) CC(C)NC(=O)OCc1c(COC(=O)NC(C)C)c(-c2cc[n+](COC(=O)C(C)(C)C)cc2)n2c1CCC2	> 100 µM (inactive)
5) n1onc2c1NC1Nc3nonc3NC1N2 (stereo unspecified)	> 100 µM (inactive)
6) Cc1ccccc1C(CCCO)C(=O)O (stereo unspecified)	> 100 µM (inactive)
7) O=C(Nc1cc(Cl)c(Cl)cc1Cl)C(=O)C(C(=O)c1ccccc1)C1OC(=O)c2ccccc21 (stereo unspecified)	> 100 µM (inactive)
8) COC1=C(OC)C(=O)c2cc(SC)c(=O)c(SC)cc2C1=O	22.6 µM (inactive)

Ask: Lab note: need GI50 for CCCCc1ccc(Nc2nc(N)c3[nH]cnc3n2)cc1 on A549, anyone have it?
Result: 21.3 µM (inactive)

Ask: Thanks! And COC1=CC(c2ccc(Br)[nH]2)=N/C1=C/NCC(C)C ?
Result: 1.46 µM (inactive)

Ask: Same for O=C1NC2OCC(O)C(O)C2O1 (stereo unspecified)
Result: > 100 µM (inactive)
